Recorded ABSOLUTE SEGMENTED NEUTROPHIL values for a group of molecules are listed next.
- Species on record: Rattus norvegicus
- EXPERIMENT DESCRIPTION: DrugMatrix - Regimen: Daily Repeat
- Type: toxicity, organism-based, Sprague-Dawley
- Design: regimen Daily Repeat, gender Male, age 6-8 weeks
- REPORTED CONDITIONS: in vivo, po, 0 mg/kg, 120 h, tissue Blood, route oral GAVAGE, dose level Control, time 5 day, vehicle 100 % WATER
Report only the number, with the unit CELLS/uL understood.

Recorded ABSOLUTE SEGMENTED NEUTROPHIL, per entry:
| MOLECULE | METRIC | REPORTED MEASUREMENT |
| --- | --- | --- |
| COc1cc2nc(N3CCN(C(=O)C4COc5ccccc5O4)CC3)nc(N)c2cc1OC (stereo not given) [DOXAZOSIN] | ABSOLUTE SEGMENTED NEUTROPHIL | 674.83 |
| c1ccc([C@H]2CN3CCSC3=N2)cc1 [LEVAMISOLE] | ABSOLUTE SEGMENTED NEUTROPHIL | 1283 |
| N[C@@H](Cc1ccc(O)c(O)c1)C(=O)O [LEVODOPA] | ABSOLUTE SEGMENTED NEUTROPHIL | 674.83 |

Using the record for C=CCC1(C(C)CCC)C(=O)NC(=O)NC1=O (stereo not given) [SECOBARBITAL] , state its measured ABSOLUTE SEGMENTED NEUTROPHIL.
725.5

Return ABSOLUTE SEGMENTED NEUTROPHIL for the following molecule: COCCc1ccc(OCC(O)CNC(C)C)cc1 (stereo not given) [METOPROLOL]
1137.17

* * *

Reported PLATELET COUNT values follow for various compounds
- Organism: Rattus norvegicus
- EXPERIMENT DESCRIPTION: DrugMatrix - Regimen: Daily Repeat
- Type: toxicity, organism-based, Sprague-Dawley
- Set-up: regimen Daily Repeat, gender Male, age 6-8 weeks
- REPORTED CONDITIONS: in vivo, po, 0 mg/kg, 72 h, tissue Blood, route oral GAVAGE, dose level Control, time 3 day, vehicle .5 % CMC
Respond with the bare value in x10E3/uL.

Below are worked cases with known answers.
| COMPOUND | PLATELET COUNT, x10E3/uL |
| --- | --- |
| Cc1nc2n(c(=O)c1CCN1CCC(c3noc4cc(F)ccc34)CC1)CCCC2 | 1068.8 |
| Cc1ccc2cc3c(ccc4ccccc43)c3c2c1CC3 | 1225.83 |
| CC(C)(C)NC(=O)[C@@H]1C[C@@H]2CCCC[C@@H]2CN1C[C@@H](O)[C@H](Cc1ccccc1)NC(=O)[C@H](CC(N)=O)NC(=O)c1ccc2ccccc2n1 | 1239.5 |

Please give the documented PLATELET COUNT of OCCN(CCO)c1nc(N2CCCCC2)c2nc(N(CCO)CCO)nc(N3CCCCC3)c2n1
1074.83

For the compound ClC(Br)Br , report PLATELET COUNT.
1122.17

Hello, please tell me recorded PLATELET COUNT for this one: Cc1ccc(/N=C/N(C)/C=N/c2ccc(C)cc2C)c(C)c1
1250.83

* * *

- Organism: Rattus norvegicus
- EXPERIMENT DESCRIPTION: DrugMatrix - Regimen: Daily Repeat
- Assay type: toxicity, organism-based, Sprague-Dawley
- Set-up: regimen Daily Repeat, gender Male, age 6-8 weeks
- REPORTED CONDITIONS: in vivo, po, 0 mg/kg, 72 h, tissue Plasma, route oral GAVAGE, dose level Control, time 3 day, vehicle .5 % CMC
The following molecules are shown together with reported POTASSIUM values.
Provide only the numeric value, understood in MEQ/L.

| MOLECULE | POTASSIUM (MEQ/L) |
| --- | --- |
| N=C(N)NCCN1CCCCCCC1 | 6.23 |
| CCn1cc(C(=O)O)c(=O)c2cc(F)c(N3CCNCC3)cc21 | 7.13 |

Name the recorded POTASSIUM of the molecule listed here: OCCN(CCO)c1nc(N2CCCCC2)c2nc(N(CCO)CCO)nc(N3CCCCC3)c2n1
6.23

// Input: NC1=NC(=O)C(c2ccccc2)O1 (centres undefined) . Output its POTASSIUM only.
6.43

Provide one value: measured POTASSIUM of CN1CCN(CCCN2c3ccccc3Sc3ccc(Cl)cc32)CC1
6.91

Dear colleague, please send me the reported POTASSIUM for CCCCc1oc2ccccc2c1C(=O)c1cc(I)c(OCCN(CC)CC)c(I)c1 when you can.
6.8

Identify measured POTASSIUM corresponding to COc1nc(C)nc(Cl)c1N=C1NCCN1
6.43

* * *

- Species: Rattus norvegicus
- EXPERIMENT DESCRIPTION: DrugMatrix - Regimen: Daily Repeat
- Type: toxicity, organism-based, Sprague-Dawley
- Design: regimen Daily Repeat, gender Male, age 6-8 weeks
- REPORTED CONDITIONS: in vivo, po, 0 mg/kg, 120 h, tissue Plasma, route oral GAVAGE, dose level Control, time 5 day, vehicle 100 % WATER
Reported ALANINE AMINOTRANSFERASE values for the following compounds.
Give the number; u/L is assumed, so skip it.

Look over these answered cases.
| COMPOUND | ALANINE AMINOTRANSFERASE / u/L |
| --- | --- |
| CNNCc1ccc(C(=O)NC(C)C)cc1 | 50.5 |
| COc1cc2nc(N3CCN(C(=O)C4COc5ccccc5O4)CC3)nc(N)c2cc1OC (stereo not given) | 50.17 |
| C[C@](N)(Cc1ccc(O)c(O)c1)C(=O)O | 50.5 |
| Cn1cc[nH]c1=S | 48.33 |

Please supply the value of reported ALANINE AMINOTRANSFERASE for the item C[C@H](CS)C(=O)N1CCC[C@H]1C(=O)O
51.67

* * *

- Organism: Rattus norvegicus
- EXPERIMENT DESCRIPTION: DrugMatrix - Regimen: Daily Repeat
- Assay type: toxicity, organism-based, Sprague-Dawley
- Set-up: regimen Daily Repeat, gender Male, age 6-8 weeks
- REPORTED CONDITIONS: in vivo, po, 0 mg/kg, 120 h, tissue Blood, route oral GAVAGE, dose level Control, time 5 day, […]
Would you please tag the item condition met when its ABSOLUTE EOSINOPHIL is 20 CELLS/uL or above, and condition not met when it is below?

| COMPOUND | DISCRETE LABEL |
| --- | --- |
| O=c1oc2ccccc2c(O)c1Cc1c(O)c2ccccc2oc1=O | condition not met |

Identify whether the reported ABSOLUTE EOSINOPHIL of the following compound is 20 CELLS/uL or greater: Cc1ccc(-c2cc(C(F)(F)F)nn2-c2ccc(S(N)(=O)=O)cc2)cc1
condition met

Does the compound CC(C)(Oc1ccc(Cl)cc1)C(=O)O have recorded ABSOLUTE EOSINOPHIL that is 20 CELLS/uL or more?
condition met

ABSOLUTE EOSINOPHIL >= 20 CELLS/uL for O=NN(CCCl)C(=O)NC1CCCCC1 ?
condition not met

Tell me whether ABSOLUTE EOSINOPHIL is at least 20 CELLS/uL here: Cc1oncc1C(=O)Nc1ccc(C(F)(F)F)cc1 [LEFLUNOMIDE]
condition not met

* * *

Recorded LIPASE, one value per entry.
- Species: Rattus norvegicus
- EXPERIMENT DESCRIPTION: DrugMatrix - Regimen: Daily Repeat
- Type: toxicity, organism-based, Sprague-Dawley
- Set-up: regimen Daily Repeat, gender Male, age 6-8 weeks
- REPORTED CONDITIONS: in vivo, po, 0 mg/kg, 72 h, tissue Plasma, route oral GAVAGE, dose level Control, time 3 day, […]
Number only, in u/L; omit the unit.

Use the examples below as a reference point.
| COMPOUND | REPORTED MEASUREMENT |
| --- | --- |
| Cc1ccc(-c2cc(C(F)(F)F)nn2-c2ccc(S(N)(=O)=O)cc2)cc1 [CELECOXIB] | 11.67 |
| CCOC(=O)C1=C(COCCN)NC(C)=C(C(=O)OC)C1c1ccccc1Cl (centres undefined) [AMLODIPINE] | 10.33 |
| CCC(C)n1ncn(-c2ccc(N3CCN(c4ccc(OCC5COC(Cn6cncn6)(c6ccc(Cl)cc6Cl)O5)cc4)CC3)cc2)c1=O (centres undefined) [ITRACONAZOLE] | 11.67 |
| CN(C)c1nc(N(C)C)nc(N(C)C)n1 [ALTRETAMINE] | 10.33 |
| CC(C)(Oc1ccc(Cl)cc1)C(=O)O [CLOFIBRIC ACID] | 10 |

Tell me its LIPASE given Cc1oncc1C(=O)Nc1ccc(C(F)(F)F)cc1 [LEFLUNOMIDE] as the entry.
11.33

Annotate the compound CC(C)C(=O)Nc1ccc([N+](=O)[O-])c(C(F)(F)F)c1 [FLUTAMIDE] with its measured LIPASE.
9.67

Please look at this compound and report its LIPASE: O=C(O)CCCc1ccc(N(CCCl)CCCl)cc1 [CHLORAMBUCIL]
11.67
